Measured %Inh, listed per entry.
System: JAK3(JH1domain-catalytic)
Conditions: concentration: 1 μM,replicates: in singlicate; n = 1;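 further: KINOMEscan kinase panel screen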
Field: numeric (%). Do not append units.

Answered cases to consult:
MOLECULE | MEASURED RESULT
CS(=O)(=O)c1cccc(CNc2nc(Nc3ccc4c(c3)[C@@H]3C[C@@H]4CNC3=O)ncc2C(F)(F)F)c1 | 100
C[C@@H]1CNc2c(sc3ccc4nc(-c5ccc(O)cc5)ccc4c23)C(=O)N1 | 94.6
FC(F)(F)c1cc(Br)cc(Nc2nccc(-c3cnn4ncccc34)n2)c1 [GW810578] | 0
Cn1ccc2ncnc(Oc3ccc(NC(=O)Nc4cc(C(C)(C)C)on4)c(Cl)c3)c21 | 6

// `Cn1ccc2ncnc(Oc3ccc(NC(=O)Nc4cnn(C(C)(C)C)c4)c(Cl)c3)c21` : %Inh value = 15

Form: molecule = `O=C1NCCc2[nH]c(-c3ccncc3)cc21` ; %Inh = 87

So for Cc1ccc(CC(=O)N2CCc3cc(-c4cn(C)c5ncnc(N)c45)ccc32)cc1 [GSK2634758] , the logged %Inh turned out to be 0

response.value for Cc1cccc2c(-c3ccncc3)c(-c3ccc(F)cc3)nn12.Cl [GW461487] (field: %Inh) = 0

Data point: N#Cc1cccc(C(=O)NC2CCN(c3ccnc(Nc4ccc(F)cc4)n3)C2)c1 (stereo not shown) [GSK1379708] ; %Inh = 0

COc1cccc(C2=C(Nc3cccc(Cl)c3)C(=O)NC2=O)c1 [SB-341556] yielded %Inh of 92.9

###

Tested on: NEK10
Settings: concentration: 1 μM,replicates: in singlicate; n = 1
# %Inh values compiled below
Form entry: value (%) — number only.

COMPOUND | MEASURED ON | MEASUREMENT LABEL | MEASURED RESULT
O=C(Nc1cccc(C(F)(F)F)c1)c1cccc(Oc2ccc3nccn3n2)c1 | NEK10 | %Inh | 0
COc1cc2c(Nc3ccc(NC(=O)c4ccccc4)cc3)ncnc2cc1OCCCN1CCOCC1 | NEK10 | %Inh | 3
CS(=O)(=O)Nc1ccc(-c2ccnc3[nH]ccc23)cc1 | NEK10 | %Inh | 71
Cl.Cl.NC[C@H](CC1CCCCC1)NC(=O)c1ccc(-c2ccnc3[nH]ccc23)s1 | NEK10 | %Inh | 17
Cl.Nc1n[nH]c2cc(-c3ccccn3)ccc12 | NEK10 | %Inh | 2
COc1cccc(CNC(=O)NC2CCN(c3ccnc(Nc4cc(OC)c(OC)c(OC)c4)n3)C2)c1 (centres unmarked) | NEK10 | %Inh | 14
COc1ccc(Nc2nccc(N3CCC(NC(=O)c4cccc(C#N)c4)C3)n2)cc1 (centres unmarked) | NEK10 | %Inh | 28
CN(c1ccc2c(c1)nc(NCc1ccc(F)cc1)n2C)c1ccnc(Nc2ccc(CS(C)(=O)=O)cc2)n1.Cl | NEK10 | %Inh | 10

Here's the next entry for you.
So for `O=C(NOCC1CC1)c1cc(Br)c(F)c(F)c1Nc1ccc(I)cc1Cl` , the logged %Inh turned out to be 0

###

System: S6K1
Settings: concentration: 1 μM,replicates: in singlicate; n = 1
Rule: %Inh under 20% gives n, otherwise y.

Q) Evaluate `C[C@@H]1CNc2c(sc3ccc4nc(-c5ccncc5)ccc4c23)C(=O)N1` : %Inh at minimum 20%?
A) n

Q) Hello, I need to know if COc1ccc(Nc2nccc(N3CCC(NC(=O)c4cccc(C#N)c4)C3)n2)cc1 (stereo not drawn) has measured %Inh not below 20%. Thanks!
A) n

Q) Hello, I need to know if `Cc1ccc(CC(=O)N2CCc3cc(-c4cn(C)c5ncnc(N)c45)ccc32)cc1` has measured %Inh not below 20%. Thanks!
A) n

Q) Item `NC(=O)c1ccc(-c2cc3ncnc(SCC(=O)O)c3s2)cc1` with %Inh of 20% or above?
A) n

###

Measured %Inh, listed per entry.
Tested on: PRKG1
Conditions: concentration: 1 μM,replicates: in singlicate; n = 1
I'd appreciate it if you included the unit after the number.

COMPOUND | %Inh
CCOC(=O)N1CCC(n2cnc(-c3ccc(F)cc3)c2-c2ccnc(N)n2)CC1 | 40%
CC(=O)Nc1ccc(-c2cc3ncnc(SCC(=O)O)c3s2)cc1 | 1%
Cn1ccc2ncnc(Oc3ccc(NC(=O)Nc4cncc(C(F)(F)F)c4)c(Cl)c3)c21 | 0%
Cl.Nc1n[nH]c2cc(-c3ccccn3)ccc12 | 0%
CN1CCN(CCNc2nc3cc(Oc4ccc(NC(=O)Nc5cc(C(F)(F)F)ccc5F)cc4)ccc3[nH]2)CC1.Cl.Cl | 2%
COc1cc(Nc2nccc(N3CCC(NC(=O)c4cccc(C#N)c4)C3)n2)cc(OC)c1OC (stereo not drawn) | 0%

Item: `COC(=O)Nc1nc2cc(Oc3ccc(NC(=O)Nc4cc(C(F)(F)F)ccc4Cl)cc3)ccc2[nH]1.Cl` | %Inh: 2%

Lab book: %Inh of `Cn1ccc2ncnc(Oc3ccc(NC(=O)Nc4cc(C(C)(C)C)on4)c(Cl)c3)c21` noted as 0%

For this compound ( `CN1CCN(CCCNc2nccc(-c3c(-c4ccc(F)cc4)nn4cc(C(N)=O)ccc34)n2)CC1` ), measured %Inh is 6%

%Inh in this record for `CC(C)c1nc(-c2cccc(NS(=O)(=O)c3ccccc3)c2)c(-c2ccnc(Nc3ccc4c(c3)CN(C)CC4)n2)s1` : 0%

// sample `Cc1n[nH]c2cc(Nc3ccnc(Nc4cccc(CN5CCOCC5)c4)n3)ccc12` , its %Inh was 0%

Value of %Inh reported for the compound `Cn1cc(-c2cccc3c(N)c(C(N)=O)nnc23)cn1` is 39%

Measured %Inh of `Cc1ccc(C(=O)Nc2ccc(Oc3ccc4nc(NC(=O)C5CC5)cn4c3)c(F)c2)c(=O)n1-c1ccccc1` : 5%

// %Inh lookup, compound = `CN(c1ccccc1CNc1nc(Nc2ccc3c(c2)CC(=O)N3)ncc1C(F)(F)F)S(C)(=O)=O` , result: 0%

Per the records, this compound ( `CCn1c(-c2nonc2N)nc2cncc(Br)c21` ) has %Inh equal to 0%

###

Test system: YANK1
Construct: gene STK32A
Conditions: concentration: 1 μM,replicates: in singlicate; n = 1
The entries below come with measured %Inh values attached.
Your answer is read as %, so omit the unit and give the number.

Record excerpt, results attached:
MOLECULE | MEASURED ON | MEASUREMENT LABEL | UNIT NAME | MEASURED RESULT
CC(C(=O)NC1CCN(c2ccnc(Nc3ccc(F)cc3)n2)C1)c1ccc(Cl)cc1 (stereo not shown) | YANK1 | %Inh | % | 0
CC(C)S(=O)(=O)N1CCN(Cc2ccc3c(c2)nc(NC(=O)c2ccsc2)n3C[C@H](O)c2ccccc2)CC1 | YANK1 | %Inh | % | 1

// %Inh value for `O=c1[nH]cc(-c2ccc(O)cc2)c2sc(-c3ccncc3)cc12` : 10

// CCNCC(Cc1ccccc1)NC(=O)c1cc(Br)c(-c2ccnc3[nH]ccc23)s1.Cl.Cl (stereo not shown) : %Inh value = 23

###

We begin with a simple list: items and their reported %Inh.
Test system: CASK
Conditions: concentration: 1 μM,replicates: in singlicate; n = 1
Use % as the unit, but write only the number.

COMPOUND | MEASURED ON | %Inh [%]
Cl.c1ccc(Oc2ccc(Nc3ccnc4cc(-c5ccc(CN6CCNCC6)o5)ccc34)cc2)nc1 [GW567142] | CASK | 0
O=C(NCC1CC1)c1ccc(-c2cc(C(=O)NC3CC3)ccc2F)cc1 [GW810445] | CASK | 41
CCCC(=O)Nc1n[nH]c2ncccc12 [SB-601436] | CASK | 0
C[C@@H](Oc1cc(-n2cnc3ccc(-c4ccncc4)cc32)sc1C(N)=O)c1ccccc1Cl [GSK483724] | CASK | 14
Cc1ccn2nc(-c3ccc(F)cc3)c(-c3ccncc3)c2c1.Cl [GW457859] | CASK | 6
CN(c1cccc(CNc2nc(Nc3ccc4c(c3)CC(=O)N4)ncc2C(F)(F)F)c1)S(C)(=O)=O | CASK | 7
COC(=O)c1cccc(NC(=O)NC2CCN(c3ccnc(NCc4ccc(F)cc4)n3)CC2)c1 [GSK1379860] | CASK | 0
COc1cccc(CNC(=O)NC2CCN(c3ccnc(Nc4cc(OC)c(OC)c(OC)c4)n3)C2)c1 (stereo not shown) [GSK1379765] | CASK | 0

Let me check: `O=C(Nc1cccc(C(F)(F)F)c1)c1cccc(Oc2ccc3nccn3n2)c1` , system CASK, measured %Inh is 17

Summary line: `O=C(Nc1ccccc1)c1cccc(Oc2ccc3nccn3n2)c1` , CASK, reported %Inh = 8

###

Test system: PRKCH
Conditions: concentration: 1 μM,replicates: in singlicate; n = 1
MEASUREMENT LABEL: %Inh (%)
Respond with the bare value in %.

COMPOUND | MEASURED RESULT
Cc1cccc2c(-c3ccncc3)c(-c3ccc(F)cc3)nn12.Cl | 0
COc1cc(Nc2nccc(N3CCC(NC(=O)c4cccc(C#N)c4)C3)n2)cc(OC)c1OC (centres unmarked) | 0
COc1cccc(C2=C(Nc3cccc(Cl)c3)C(=O)NC2=O)c1 | 0
O=c1[nH]cc(-c2ccc(O)cc2)c2sc(-c3ccncc3)cc12 | 0
Cc1n[nH]c2cc(Nc3ccnc(Nc4cccc(CN5CCOCC5)c4)n3)ccc12 | 0
C[C@@H](Oc1cc(-n2cnc3cc(-c4ccncc4)ccc32)sc1C(N)=O)c1ccccc1Cl | 12
NC(=O)c1ccc(-c2cc3ncnc(SCC(=O)O)c3s2)cc1 | 0
CC(C)c1nc(-c2cccc(NS(=O)(=O)c3ccccc3)c2)c(-c2ccnc(Nc3ccc4c(c3)CN(C)CC4)n2)s1 | 0
CNC(=O)c1ccccc1Nc1nc(Nc2cccc(CS(C)(=O)=O)c2)ncc1C.O=CO | 0
N#Cc1cccc(C(=O)NC2CCN(c3ccnc(Nc4ccc(F)cc4)n3)C2)c1 (centres unmarked) | 0

So for `CC(=O)Nc1nc2cnc(Nc3cc(NC(=O)c4cccc(CC(C)(C)C#N)c4)ccc3C)nc2s1` , the logged %Inh turned out to be 14

Given item `Cc1ccc2c(-c3ccnc(Nc4ccc(C(F)(F)F)cc4)n3)cnn2n1` , the value recorded as its %Inh is 0

This collection of values is drawn from paper PMC5540273.
